B1: library; numbered along this chain (parent)
chain: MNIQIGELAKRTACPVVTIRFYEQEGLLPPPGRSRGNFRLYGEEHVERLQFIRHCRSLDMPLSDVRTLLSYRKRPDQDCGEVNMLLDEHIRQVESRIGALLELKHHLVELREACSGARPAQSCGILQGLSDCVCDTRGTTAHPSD

# Variants of: B1
# experimental details: sfGFP reporter fluorescence (15 h) (µM FITC); higher = stronger transcriptional activation
# applied conditions: library round: Round 0; ligand: 30 µM Zn
Recorded sfGFP reporter fluorescence by entry

Query :: Quick one: give measured sfGFP reporter fluorescence for MNIQIGELAKRTACPVVTIRFYEQEGLLPPPGRSRGNFRLYGEEHIERLQFIRHCRSLDMPLSDVRTLLSYRKRPDQDCGEVNMLLDEHIRQVESRIGALLELKHHLVELREACSGARPAQSCGILQGLSDCVCDTRGTTAHPSD
Result :: 0.831

Query :: Quick one: give measured sfGFP reporter fluorescence for MNIQIGELAKRTACPVVTIRFYEQEGLLPPPGRSRGNFRLYGEEHVERLQFIRHCRSLDMPLSDVRTLLSYRKRPDQDCGEVNMLLDEHIRQVESRIGALLELKHHLVELREACSGARPAQSVGILQGLSDCVCDTRGTTAHPSD
Result :: 0.0541

Query :: Quick one: give measured sfGFP reporter fluorescence for MNIQIGELAKRTACPVVTIRFYEQEGLLPPPGRSRGNFRLYGEEHVERLQFIRHCRSLDMPLSDVRTLLSYRKRPDQDCGEVNMLLDEHIRQVESRIGALLELKHHLVENREACSGARPAQSCGILQGLSDCVCDTRGTTAHPSD
Result :: 0.0627

Query :: Quick one: give measured sfGFP reporter fluorescence for MNIQIGELAKRTACPVVTIRFYEQEGLLPPPGRSRGNFRLYGEEHVERLQFIRHCRSLDMPLSDVRTLLSYRKRPDQDCGEVNMLLDEHIRQVESRIGALLELKHHLVELREACSGARPAQSCGTLQGLSDCVCDTRGTTAHPSD
Result :: 0.0641

Query :: Quick one: give measured sfGFP reporter fluorescence for MNIQIGELAKRTACPVVTIRFYEQEGLLPPPGRSRGNFRLYGEEHAERLQFIRHCRSLDMPLSDVRTLLSYRKRPDQDCGEVNMLLDEHIRQVESRIGALLELKHHLVELREACSGARPAQSCGILQGLSDCVCDTRGTTAHPSD
Result :: 0.682

Query :: Quick one: give measured sfGFP reporter fluorescence for MNIQIGELAKRTACPVVTIRFYEQEGLLPPPGRSRGNFRLYGEEHVERLQFIRHCRSLDMPLSDVRTLLSYRKRPDQDCGEVNMLLDEHIRQVESRIGALLELKHHPVELREACSGARPAQSCGILQGLSDCVCDTRGTTAHPSD
Result :: 0.0621

Query :: Quick one: give measured sfGFP reporter fluorescence for MNIQIGELAKRTACPVVTIRFYEQEGLLPPPGRSRGNFRLYGEEAVERLQFIRHCRSLDMPLSDVRTLLSYRKRPDQDCGEVNMLLDEHIRQVESRIGALLELKHHLVELREACSGARPAQSCGILQGLSDCVCDTRGTTAHPSD
Result :: 0.687

Query :: Quick one: give measured sfGFP reporter fluorescence for MNIQIGELAKRTACPVVTIRFYEQEGLLPPPGRSRGNFRLYGEEHVERLQFIRHCRSLDMPLSDVRTLLSYRKRPDQDCGEVNMLLDEHIRQVESRIGALLELPHHLVELREACSGARPAQSCGILQGLSDCVCDTRGTTAHPSD
Result :: 0.0819

Query :: Quick one: give measured sfGFP reporter fluorescence for MNIQIGELAKRTACPVVTIRFYEQEGLLPPPGRSRGNFRLYGEEHVERLQFIRHCRSLDMPLSDVRTLLSYRKRPDQDCGEVNMLLDEHWRQVESRIGALLELKHHLVELREACSGARPAQSCGILQGLSDCVCDTRGTTAHPSD
Result :: 0.272
